- measured.on: human TLR7 (Homo sapiens (Human))
- Sequence (Q9NYK1 27-1049): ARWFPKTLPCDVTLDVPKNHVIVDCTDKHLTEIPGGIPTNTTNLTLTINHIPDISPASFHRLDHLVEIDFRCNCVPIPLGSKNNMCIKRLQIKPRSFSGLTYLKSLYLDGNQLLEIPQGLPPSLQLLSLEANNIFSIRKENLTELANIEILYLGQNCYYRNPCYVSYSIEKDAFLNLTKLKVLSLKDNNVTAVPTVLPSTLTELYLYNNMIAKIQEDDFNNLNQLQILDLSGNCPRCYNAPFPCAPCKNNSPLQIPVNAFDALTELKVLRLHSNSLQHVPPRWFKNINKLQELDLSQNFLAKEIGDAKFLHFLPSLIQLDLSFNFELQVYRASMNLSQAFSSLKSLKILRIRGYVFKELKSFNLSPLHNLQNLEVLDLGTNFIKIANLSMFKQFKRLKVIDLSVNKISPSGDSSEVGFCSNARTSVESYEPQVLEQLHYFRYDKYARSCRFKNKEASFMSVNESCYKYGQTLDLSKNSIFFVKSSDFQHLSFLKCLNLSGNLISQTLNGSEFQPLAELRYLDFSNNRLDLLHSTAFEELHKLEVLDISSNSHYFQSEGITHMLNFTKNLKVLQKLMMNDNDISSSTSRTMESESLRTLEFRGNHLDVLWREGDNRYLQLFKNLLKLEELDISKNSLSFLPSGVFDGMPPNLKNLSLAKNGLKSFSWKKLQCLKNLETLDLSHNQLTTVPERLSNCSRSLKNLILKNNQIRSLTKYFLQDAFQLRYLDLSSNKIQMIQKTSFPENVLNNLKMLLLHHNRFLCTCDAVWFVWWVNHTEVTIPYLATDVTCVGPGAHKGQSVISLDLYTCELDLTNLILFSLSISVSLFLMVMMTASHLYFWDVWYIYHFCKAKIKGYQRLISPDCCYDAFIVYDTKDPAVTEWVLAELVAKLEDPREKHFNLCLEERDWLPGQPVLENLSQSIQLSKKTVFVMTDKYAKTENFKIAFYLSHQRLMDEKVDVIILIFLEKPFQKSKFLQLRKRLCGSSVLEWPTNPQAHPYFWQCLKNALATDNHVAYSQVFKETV
- test.name: TLR7 inhibition reporter assay (HEK-Blue cells, SEAP reporter, gardiquimod stimulation)
measured.endpoint: IC50 (nM)
Just the number please, in nM, no unit attached.

# input Given the molecule Cc1c(-c2[nH]c3ccc(N4C[C@H]5C[C@@H]4CN5C4CCOC4)nc3c2C(C)C)cn2ncnc2c1C (stereo partly shown) [Example 771] , what is its reported IC50?
# output 4.3

* * *

- measured.on: human TLR9 (Homo sapiens (Human))
- Sequence (Q9NR96 26-1032): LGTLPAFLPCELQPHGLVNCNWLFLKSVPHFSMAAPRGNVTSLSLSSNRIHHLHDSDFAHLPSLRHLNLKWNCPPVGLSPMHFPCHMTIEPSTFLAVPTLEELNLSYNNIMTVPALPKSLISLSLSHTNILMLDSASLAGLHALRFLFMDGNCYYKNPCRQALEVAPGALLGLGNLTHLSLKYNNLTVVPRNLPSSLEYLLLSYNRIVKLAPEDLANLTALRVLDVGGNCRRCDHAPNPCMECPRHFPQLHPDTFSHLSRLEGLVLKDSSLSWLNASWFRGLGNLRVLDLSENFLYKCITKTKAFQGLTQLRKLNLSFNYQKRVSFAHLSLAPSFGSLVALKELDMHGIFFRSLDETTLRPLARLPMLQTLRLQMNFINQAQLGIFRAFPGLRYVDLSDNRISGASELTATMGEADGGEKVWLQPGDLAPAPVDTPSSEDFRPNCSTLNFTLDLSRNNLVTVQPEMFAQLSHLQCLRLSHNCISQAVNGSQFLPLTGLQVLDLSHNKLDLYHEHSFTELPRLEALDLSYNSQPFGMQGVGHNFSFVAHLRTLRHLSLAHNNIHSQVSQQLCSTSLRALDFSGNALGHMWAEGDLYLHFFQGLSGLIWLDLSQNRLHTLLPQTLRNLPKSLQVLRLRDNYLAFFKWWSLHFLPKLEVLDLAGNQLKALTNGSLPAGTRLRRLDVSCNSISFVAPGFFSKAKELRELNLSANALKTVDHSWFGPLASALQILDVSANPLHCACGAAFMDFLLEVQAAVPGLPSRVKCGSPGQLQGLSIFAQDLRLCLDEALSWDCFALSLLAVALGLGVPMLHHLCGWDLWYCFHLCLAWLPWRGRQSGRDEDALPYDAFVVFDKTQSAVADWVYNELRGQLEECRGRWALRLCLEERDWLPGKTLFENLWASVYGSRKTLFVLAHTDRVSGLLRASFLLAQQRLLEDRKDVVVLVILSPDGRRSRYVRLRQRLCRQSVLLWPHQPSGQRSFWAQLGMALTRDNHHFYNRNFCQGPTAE
- test.name: TLR9 inhibition reporter assay (HEK-Blue cells, SEAP reporter, ODN2006 stimulation)
- run.conditions: read-out: TLR9 IC50
measured.endpoint: IC50 (µM)
Just the number please, in µM, no unit attached.

# input Given the molecule Cc1c(-c2[nH]c3ccc(N4C[C@H]5C[C@@H]4CN5C4CCOC4)nc3c2C(C)C)cn2ncnc2c1C (stereo partly shown) , what is its reported IC50?
# output 9.84
